# target.or.test.system: c-Src SH2
# assay.overview: SH2 binding enrichment of the phosphorylated peptide, bacterial display (enrichment ratio); higher = better substrate or ligand; peptides without Tyr show the background
measured.quantity: SH2 binding enrichment
Answer using only a numeral; do not append any unit.

ALRASYTPSPV [ESS2_Y418_A423V]; 0.418
RLLVFYPWTQR [HBB_Y36_V35F]; 1.8
GVTLLCFGRFN [ADGRD1_Y85_Y85C_YF]; 0.465
SVTCTYPPALN [TP53_Y126_S127P]; 0.448
TLLERYGMTKI [ACSF3_Y355_E359K]; 0.433
KGEDFYFVTCH [FHL1_Y149_C150Y_YF]; 0.392

Asked: Item: ETVHRYVELLD [AP1S3_Y87_I83T] Test system: c-Src SH2 Read-out: SH2 binding enrichment Value: ?
Given back: 24.5

Asked: Item: SDPIIYTLENI [ADGRE1_Y534] Test system: c-Src SH2 Read-out: SH2 binding enrichment Value: ?;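 also: peptide library displayed on the E. coli surface as eCPX fusions, selected cells deep-sequenced, score is each peptide's frequency after selection divided by its frequency in the input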
Given back: 0.519
